Measured growth inhibition of individual entries
assay: NCI Yeast Anticancer Drug Screen. Data for the rad50 strain (AID 155);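 further: 0% = growth of vehicle-only cultures of the same strain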; details: S. cerevisiae rad50 strain growth inhibition; at 5.0 µM (retest, dose inferred, filed as 0.5); stronger effect = higher value
This is part of a sample that, as a whole, favours compounds with a hit. Of some 79,000 tested, about 15% had one in any assay.
Metric: growth inhibition (%)

{"Compound": "CN(C)CCCc1ccc2oc3ccccc3c2c1", "Quantitative readout": 5}
{"Compound": "CC(C)Cc1cc2c(cc1O)CCC1C2CC[C@@]2(C)C1CC[C@@H]2O (stereo partly specified)", "Quantitative readout": -10}
{"Compound": "CN(C)NC(=S)C(F)(F)F", "Quantitative readout": -1}
{"Compound": "CCN(CC)CCOc1cccc2c1C(=O)c1c(O)cccc1C2=O", "Quantitative readout": 12}
{"Compound": "COc1cccc2c1C(=O)c1c(O)c3c(c(O)c1C2=O)C[C@@](O)(/C(C)=N/NC(N)=S)C[C@@H]3OC1CC(N)C(O)C(C)O1 (stereo partly specified)", "Quantitative readout": 27}
{"Compound": "Cc1c2ccccc2c(C)n2c1nc1cc(Cl)c(Cl)cc12", "Quantitative readout": 12}
{"Compound": "O=C(Nc1ccccc1Cl)c1ccc(Cl)c(Cl)c1", "Quantitative readout": 4}
{"Compound": "Oc1ccccc1C(=NNc1ccccc1)c1ccccc1O", "Quantitative readout": 40}
{"Compound": "CCCCCCCCCCCCCCCCOS(=O)(=O)O", "Quantitative readout": 24}
{"Compound": "O=C(Nc1c(Cl)cc([N+](=O)[O-])cc1Cl)/C(=N\\Nc1cccc(Cl)c1)c1c(O)c2ccccc2oc1=O", "Quantitative readout": 15}
{"Compound": "COc1ccc(C2=CC(=O)C=CC2=O)cc1", "Quantitative readout": 19}
